- Target Of Assay: Neurogenic locus notch homolog protein 3 (Homo sapiens)
- Experiment Notes: NOTCH3 binders on small-molecule microarray, primary screen, biochemical, 635/667 nm fluorescence (AID 1096)
- Settings: NOTCH3 binding, 635 nm fluorescence, higher = more signal
param class (str): category from composite z-score; see ranges A: < -0.2; B: ≥ -0.2 and < 0.9; C: ≥ 0.9

[[record]]
molecule = "COCCOC(=O)N1C(=O)[C@@]2(c3ccccc31)[C@H](C(=O)N1CCN(c3ncccn3)CC1)[C@H]1C(=O)O[C@H](c3ccccc3)[C@H](c3ccccc3)N1[C@@H]2c1ccc(OCCO)cc1"
discrete_label = "B"

[[record]]
molecule = "COC(=O)Cn1c(C(=O)N2CCCC2)cc2c1C[C@H]1CN(C(=O)c3ccccc3)[C@@](Cc3ccc(F)cc3)(C(=O)OC)[C@@H]21"
discrete_label = "A"

[[record]]
molecule = "COC(=O)C[C@H]1O[C@]2(C(=O)N(C)c3ccccc32)[C@@H](C)[C@@H]1[Si](C)(C)c1ccc(C)cc1"
discrete_label = "C"

[[record]]
molecule = "O=C1O[C@H](c2ccccc2)[C@H](c2ccccc2)N2[C@H]1[C@@H](C(=O)O)[C@]1(C(=O)Nc3ccccc31)[C@H]2c1ccc(O)cc1"
discrete_label = "B"

[[record]]
molecule = "COCCOC(=O)N1C(=O)[C@@]2(c3cc(C#Cc4ccc(OC)cc4)ccc31)[C@H](C(=O)N1CCN(c3ncccn3)CC1)[C@H]1C(=O)O[C@H](c3ccccc3)[C@H](c3ccccc3)N1[C@@H]2c1ccccc1OCCO"
discrete_label = "B"

[[record]]
molecule = "CN(C)C(=O)[C@]1(CCC(=O)OC(C)(C)C)N=C(c2ccc(OCCCO)cc2)O[C@@H]1c1ccccc1"
discrete_label = "A"

[[record]]
molecule = "COc1cc(OC)c(C(O)C2C=CC3C(=O)N(c4ccccc4)C(=O)C3N2Nc2ccc(C#N)cc2)cc1Br (centres undefined)"
discrete_label = "C"

[[record]]
molecule = "C=CC[C@]1(C(=O)N(C)C)N=C(c2ccc(OCCCO)cc2)O[C@H]1c1ccccc1N=[N+]=[N-]"
discrete_label = "C"

[[record]]
molecule = "COc1ccc(CCNC(=O)[C@@]2(Sc3ccc(C)cc3)CC(=O)N(Cc3cc(C(F)(F)F)cc(C(F)(F)F)c3)[C@@H]2c2ccc(CO)cc2I)cc1"
discrete_label = "B"

[[record]]
molecule = "COCCCNC(=O)[C@@]1(Sc2ccc(C)cc2)CC(=O)N(Cc2cc(C(F)(F)F)cc(C(F)(F)F)c2)[C@@H]1c1ccc(CO)cc1"
discrete_label = "B"

[[record]]
molecule = "CCCCN1CC=CC23O[C@@H]4C=CCOC(=O)[C@@H]4[C@H]2C(=O)N(C(C)CO)[C@@H]3C1=O (some centres undefined)"
discrete_label = "A"

[[record]]
molecule = "CC1CC/C=C\\[C@H]2OC34C=CCN(CCN5CCOCC5)C(=O)[C@H]3N(CCO)C(=O)[C@@H]4C2C(=O)O1 (some centres undefined)"
discrete_label = "A"

[[record]]
molecule = "CC(C)(C)OC(=O)CC[C@]1(C(=O)N2CCOCC2)N=C(c2ccc(OCCCO)cc2)O[C@H]1c1ccccc1"
discrete_label = "B"

[[record]]
molecule = "CCCc1cccc(=O)o1"
discrete_label = "B"

[[record]]
molecule = "C=CCN1C(=O)[C@@]2(O[C@@H](CCn3cc([C@H](O)c4ccccc4)nn3)[C@H]([Si](C)(C)c3ccc(OC)cc3)[C@H]2C)c2ccccc21"
discrete_label = "C"

[[record]]
molecule = "CN1C(=O)C2C(C1=O)C1C=C(c3ccc(CO)cc3)C2C(c2cccs2)N1Cc1cccc(OC(F)(F)F)c1 (centres undefined)"
discrete_label = "C"

[[record]]
molecule = "C=C(/C(=C/C[C@@H](OC(=O)c1ccncc1)c1ccc(OCCO)cc1)c1cc(C(=O)OC)ccc1OC)C(C)C"
discrete_label = "C"

[[record]]
molecule = "C=C(CCCC)/C(=C/C[C@@H](OC(=O)c1ccncc1)c1cccc(OCCO)c1)c1cnc2ccccc2c1"
discrete_label = "C"

[[record]]
molecule = "O=C1O[C@@H](c2ccccc2)[C@@H](c2ccccc2)N2[C@@H](c3ccccc3OCCO)[C@]3(C(=O)Nc4ccc(C#CC5=CCCCC5)cc43)[C@@H](C(=O)NC[C@H](O)c3ccccc3)[C@H]12"
discrete_label = "C"

[[record]]
molecule = "CCOC(=O)C1=CC[C@@H](c2ccccc2C(F)(F)F)N(S(=O)(=O)c2ccc(C)cc2)C1"
discrete_label = "C"

[[record]]
molecule = "[N-]=[N+]=NCc1ccccc1C[C@@]1(C(N)=O)N=C(c2ccc(OCCCO)cc2)O[C@@H]1c1ccccc1CN=[N+]=[N-]"
discrete_label = "B"

[[record]]
molecule = "COC1(C)CN(Cc2ccccc2Br)[C@H](/C=C/c2ccccc2)[C@H](Cc2ccccc2)O1 (some centres undefined)"
discrete_label = "A"

[[record]]
molecule = "CC(=O)NCCCC[C@@H]1NC(=O)[C@@H]2C[C@H](C(=O)O)[C@H](c3ccc(O)cc3)N2C1=O"
discrete_label = "A"

[[record]]
molecule = "CC1CC/C=C\\[C@H]2OC34C=CCN(C(C)C)C(=O)[C@H]3N(CCCCCO)C(=O)[C@@H]4C2C(=O)O1 (some centres undefined)"
discrete_label = "A"

[[record]]
molecule = "C[C@]12C(=O)N(CCCCCCO)[C@@H]3C(=O)N(c4ccc(Cl)cc4)CC=CC31O[C@@H]1/C=C\\CCCOC(=O)C12 (some centres undefined)"
discrete_label = "A"

[[record]]
molecule = "CCOc1cc(C(O)C2C=CC3C(=O)N(C)C(=O)C3N2N2CCCCC2)ccc1O (centres undefined)"
discrete_label = "B"

[[record]]
molecule = "Cc1ccc(S[C@]2(C(=O)NCCN3CCOCC3)CC(=O)N(Cc3ccccc3C(F)(F)F)[C@@H]2c2ccc(CO)cc2I)cc1"
discrete_label = "A"

[[record]]
molecule = "C=C(/C=C/CNS(=O)(=O)c1ccc(C)cc1)[C@H](O)[C@H]1CCCN1S(=O)(=O)c1ccccc1[N+](=O)[O-]"
discrete_label = "B"

